Just for reference, the supplement of paper PMC10037445 is where these values come from.

Test system: RAW-Dual
Method Notes: NF-kB SEAP reporter activity, fold change vs agonist alone; cytotoxicity flag (confluency mask): not cytotoxic; higher = enhanced NF-kB activity
Reported Conditions: agonist: Pam2CSK4 (TLR2/6) 0.1 ug/mL
The full ranking holds about 2,900 compounds; the median of “NF-kB SEAP reporter activity, fold change vs agonist alone” is about 0.99, and the highest 2% start at about 2.6. The sample holds the highest values, similar compounds and a random draw of the others, so the mix is not that of the screen.
# if value of NF-kB SEAP reporter activity reaches 1, tag 1 (yes); if it stays below, tag 0 (no)

Does CC1=CC2(O)OC3(CC2=C(C)C)C(C)CCC13 (stereo not given) (library stock concentration (final ~1000-fold dilution): 10 mM) have a reported NF-kB SEAP reporter activity of at least 1? 0 (no)

Does COc1cc2c(cc1OC)CN(C(=O)/C=C/c1c(-c3ccccc3)n(C)c3ncccc13)CC2.Cl (library stock concentration (final ~1000-fold dilution): 10 mM) have a reported NF-kB SEAP reporter activity of at least 1? 1 (yes)

Does Cl.Cn1cc(C(=O)C2CCc3nc[nH]c3C2)c2ccccc21 (stereo not given) (library stock concentration (final ~1000-fold dilution): 10 mM) have a reported NF-kB SEAP reporter activity of at least 1? 0 (no)

Does N#Cc1ccnc(N2C(=O)CCC2C(=O)N(c2cncc(F)c2)C(C(=O)NC2CC(F)(F)C2)c2ccccc2Cl)c1 (stereo not given) (library stock concentration (final ~1000-fold dilution): 10 mM) have a reported NF-kB SEAP reporter activity of at least 1? 0 (no)

New cases:
Does COc1ccc(C(NC(=O)c2cnc(-c3cccnn3)nc2O)c2ccc(OC)cc2)cc1 (library stock concentration (final ~1000-fold dilution): 10 mM) have a reported NF-kB SEAP reporter activity of at least 1? 0 (no)
